ASSAYED_SYSTEM: E6-Caspase 8 binding (Human papillomavirus type 16, UniProt P03126)
Construct: made in house; host or cells: E. coli
Sequence (P03126 whole entry): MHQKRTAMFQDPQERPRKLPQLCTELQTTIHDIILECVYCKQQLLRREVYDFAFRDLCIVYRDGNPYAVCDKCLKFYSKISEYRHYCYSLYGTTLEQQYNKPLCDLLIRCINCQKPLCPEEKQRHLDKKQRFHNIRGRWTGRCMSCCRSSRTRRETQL
METHOD_SUMMARY: biochemical
Design: species or system HPV E6, human Caspase 8
EXPERIMENTAL_PARAMETERS: IC50 against E6-Caspase 8
PARAMETER_MEASURED: IC50 (µM)
One number for each entry, in µM.

Ask: So what does the record say about IC50 for O=c1c(O)c(-c2cc(O)c(O)c(O)c2)oc2cc(O)cc(O)c12 [myricetin, reference compound] ?
Result: 4.6
